- PROTOCOL_SUMMARY: Clinical pharmacokinetics of ivermectin metabolites in blood of healthy volunteers
- Format: in vivo, human
- CONDITION_INFO: PK subject 2, 50 µL blood
Below, each entry is listed alongside its reported Observed Cmax, peak area.

MOLECULE	READOUT_UNITS	Observed Cmax, peak area
CCC(C)C1OC2(CCC1C)CC1CC(CC=C(C)C(OC3CC(OC)C(OC4CC(OC)C(O)C(C)O4)C(C)O3)C(C)C=CC=C3COC4C(O)C(CO)=CC(C(=O)O1)C34O)O2 (stereo not shown) [M2, 4-hydroxy-H2B1a]	counts	9.36E+03
CCC(C)C1OC2(CCC1C)CC1CC(CC=C(C)C(OC3CC(OC)C(OC4CC(O)C(O)C(C)O4)C(C)O3)C(C)C=CC=C3COC4C(O)C(C)=CC(C(=O)O1)C34O)O2 (stereo not shown)	counts	1.01E+04
CCC(C)C1OC2(CCC1C)CC1CC(CC=C(C)C(OC3CC(OC)C(OC4CC(O)C(O)C(C)O4)C(C)O3)C(C)C=CC=C3COC4C(O)C(CO)=CC(C(=O)O1)C34O)O2 (stereo not shown) [M4, 3″-O-desmethyl, 4-hydroxy-H2B1a]	counts	4.65E+03
CC[C@H](C)[C@H]1O[C@]2(CC[C@@H]1CO)C[C@@H]1C[C@@H](C/C=C(\C)[C@@H](O[C@H]3C[C@H](OC)[C@@H](O)[C@H](C)O3)[C@@H](C)/C=C/C=C3\CO[C@@H]4[C@H](O)C(C)=C[C@@H](C(=O)O1)[C@]34O)O2 [M5, 24-hydroxy-H2B1a monosaccharide]	counts	5.85E+02

Data origin, for the record: paper PMC10290335
